studySystem: T1, hCD137 (FXa digested) (human, UniProt Q07011 24-186)
T1 construct: Factor Xa digestion and Protein A removed the Fc; also called human CD137 extracellular domain
T1 sequence (Q07011 other isoform, or with tags, fused parts or gaps limits assumed): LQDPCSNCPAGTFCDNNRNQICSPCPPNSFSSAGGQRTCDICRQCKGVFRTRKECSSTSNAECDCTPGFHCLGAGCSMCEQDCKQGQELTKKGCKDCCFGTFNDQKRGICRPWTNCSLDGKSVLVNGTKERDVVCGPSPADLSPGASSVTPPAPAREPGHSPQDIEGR
runDescription: SPR, no small molecule
Protocol: Biacore T200 (GE Healthcare) was used to analyze the interaction of antigen-antibody reaction between the anti-CD137 antibodies and hCD137 (FXa digest). […] For the running buffer, 20 mM ACES, 150 mM NaCl, 2 mM MgCl₂, 0.05% Tween20 (pH 7.4) was used, and 10 mM Glycine-HCl (pH 1.5) was used as the regeneration solution. After capturing of the anti-CD137 antibodies suspended in TBS, 500 nM hCD137 (FXa digest) was injected into each flow cell at a flow rate of 10 μL/min for three minutes. […]
property: binding amount (RU)

- binder: "dBBAT122-P253 (antibody, human IgG1, lambda, V domains shown) VH: EVQLVESGGDLVKPGGGLRLSCAASGFTFSTYTMNWVRQAPGKGLEWVSSISSRSNYKFYADSVKGRFTISRDNAKNSLYLQMNSLRAEDTAVYYCARFGGKNNMNWVFDYWGQGTLVTVSS VL: QSALTQPPSASGSPGQTVTISCTGTSSDVGFYNYVSWYQQHPGKAPKLMIYEVSKRPSGVPDRFSGSKSGNTASLTVSGLQAEDEADYFCSSYEYIESVLFGGGTKLTVLG"
  valueMeasured: 3.3

Data provenance is patent US20230272099A1.
